# System: C57BL/6 mice given hANGPTL4-mFc
# Format: in vivo
# measurement parameters: antibody 5 mg/kg s.c.; 24 h later hANGPTL4-mFc 25 μg/mouse i.v.; bled 30 min after; mean±SEM
Exercise: for every item that follows, state its recorded NEFA-C.
Answer in mg/dL, number only, no unit symbol.

Kindly note the recorded NEFA-C for H1H653P: anti-hANGPTL4 antibody, HCVR/LCVR SEQ ID NOs 306/308 (antibody, V domains shown) VH: QVQLVESGGGVVQPGRSLRLSCVASGFTFSSYGMHWVRQAPGKGLEWMAVIWYDGSNKYFADSVKDRFTISRDNSKNTLYLQMNTLRPDDTAVYYCVKADAPLLIYGVDVWGQGTTVTVS VL: DIQMTQSPSSLSASVGDRVTITCRASQGIRNDLGWYQEKPGKAPKRLIYFASSLQSGVPSRFSGSGSGTEFTLTISSLQPEDFATYYCLQHNSYPYTFGQGTKLEIK , which is 1.04

Kindly note the recorded NEFA-C for H1H283P: anti-hANGPTL4 antibody, HCVR/LCVR SEQ ID NOs 66/68 (antibody, V domains shown) VH: EVQLVESGGGLVQPGGSLRLSCAASGFTFSSYDMHWVRQVAGKGLEWVSAIGTAGDTYYPVSVKGRFTISRENAKNSLYLHMNSLRAGDTAVYFCARGDSRNYYVGDYFDYWGQGTLVTVSS VL: DIQMTQSPSTLSASVGDRVTITCRASQSISRWLAWYQQKPGKAPKVLIYKASNLESGVPSRFSGSGSGTEFTLTISSLQPDDFATYYCQQYNSYSRTFGQGTKVEIK , which is 1.13

Kindly note the recorded NEFA-C for H1H295P: anti-hANGPTL4 antibody, HCVR/LCVR SEQ ID NOs 186/188 (antibody, V domains shown) VH: EVQLVESGGGLVQPGGSLRLSCAASGFTFSTYDMHWVRQAPGKGLEWVSAIGSAGDTYYPGSVKGRFTISRDNAKSSLFLQMNSLRAGDTALYYCARGDSRNYFVGDYFDYWGQGTLVTVSS VL: DIQMTQSPSTLSASVGDRVTITCRASQSIGTWLAWYQQKPGKAPKILIYKASSLEGGVPSRFSGSGSGTEFTLTISSLQPDDFANYYCQQYNSFYRTFGQGTKVEIK , which is 1.12

Kindly note the recorded NEFA-C for H1H268P: anti-hANGPTL4 antibody, hIgG1 isotype, HCVR/LCVR SEQ ID NOs 42/44 (antibody, V domains shown) VH: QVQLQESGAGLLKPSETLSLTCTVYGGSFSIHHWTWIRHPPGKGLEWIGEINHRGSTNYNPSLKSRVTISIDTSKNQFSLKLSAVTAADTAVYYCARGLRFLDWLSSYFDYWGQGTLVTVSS VL: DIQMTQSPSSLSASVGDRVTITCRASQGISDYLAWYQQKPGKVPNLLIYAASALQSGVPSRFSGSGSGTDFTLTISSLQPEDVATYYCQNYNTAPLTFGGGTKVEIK , which is 0.82

Every entry's value here was drawn from patent US9120851B2.
